Numbers sourced from paper PMC12198292.

# System: HEK293T NIS C cells
# test method notes: Neutral red uptake viability assay, HEK293T NIS C
# setup conditions: mean±SD, 2 h exposure
metric: NR IC20 HEK293T NISC

Query string: I am curious: what NR IC20 HEK293T NISC value has been reported for Cn1cc[nH]c1=S [MMI, Methimazole, reference compound] ?
Result string: n.e./ n.e.

Query string: I am curious: what NR IC20 HEK293T NISC value has been reported for O=S(=O)(O)C(F)(F)C(F)(F)C(F)(F)C(F)(F)C(F)(F)C(F)(F)C(F)(F)C(F)(F)F [PFOS, Perfluorooctane sulfonate] ?
Result string: n.e. / n.e.

Query string: I am curious: what NR IC20 HEK293T NISC value has been reported for CC1(C)S[C@@H]2[C@H](NC(=O)[C@H](N)c3ccccc3)C(=O)N2[C@H]1C(=O)O [AMP, Ampicillin, reference compound] ?
Result string: n.e./ n.e.

Query string: I am curious: what NR IC20 HEK293T NISC value has been reported for O=C(O)C(F)(F)C(F)(F)C(F)(F)C(F)(F)C(F)(F)C(F)(F)C(F)(F)F [PFOA, Perfluorooctanoic acid] ?
Result string: n.e./ n.e.

Query string: I am curious: what NR IC20 HEK293T NISC value has been reported for S=C1NCCN1 [ETU, Ethylene thiourea] ?
Result string: n.e./ n.e.

Further cases:
Query string: I am curious: what NR IC20 HEK293T NISC value has been reported for NC(Cc1cc(I)c(Oc2cc(I)c(O)c(I)c2)c(I)c1)C(=O)O [T4, 3,3′,5,5″-Tetraiodo-L-thyronine] ?
Result string: n.e. / n.e.

Query string: I am curious: what NR IC20 HEK293T NISC value has been reported for O=P(Oc1ccccc1)(Oc1ccccc1)Oc1ccccc1 [TPP, Triphenyl phosphate] ?
Result string: n.e. / n.e.

Query string: I am curious: what NR IC20 HEK293T NISC value has been reported for Oc1cccc(O)c1 [RSC, Resorcinol] ?
Result string: n.e./ n.e.
